runDescription: modulators of HCV replicon luciferase signal, primary screen, HCV replication inhibitor project, Huh7 cells, luciferase reporter (AID 1109);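 also: huh7 hepatoma cells harbouring a luciferase neomycin HCV replicon reporter; luciferase luminescence as measure of HCV replicon replication; test concentration not given here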
measurementConditions: 48 h, higher = more signal
quantityMeasured: z-score
# respond with the number and nothing more

Reference set, count: 5
Cc1ccccc1C(O)C1C=CC2C(=O)N(c3ccccc3)C(=O)C2N1Nc1ccc(C(C)C)cc1 (stereo unspecified) :: 1.11
O=C(NCCN1CCOCC1)[C@@H]1c2ccccc2C(=O)N(C2CCCCC2)[C@H]1c1ccc(CO)cc1 :: -1.49
C=CCOC(=O)[C@H]1[C@@H]2C(=O)O[C@@H](c3ccccc3)[C@@H](c3ccccc3)N2[C@@H](c2ccc(OCCOC(=O)[C@H]3C[C@H]4C(=O)N[C@@H](CCCCNC(C)=O)C(=O)N4[C@H]3c3cccc(OCCO)c3)cc2)[C@]12C(=O)Nc1ccccc12 :: -1.47
NC(=O)NCC#Cc1ccc2c(c1)[C@]1(C(=O)N2)[C@H](c2ccccc2OCCO)N2[C@H](c3ccccc3)[C@H](c3ccccc3)OC(=O)[C@H]2[C@@H]1C(=O)Nc1nc2ccccc2s1 :: -0.809
O=C(CS)NCCCCCCNC(=O)[C@@H]1C[C@@H]2C(=O)N[C@@H](Cc3ccccc3)C(=O)N2[C@@H]1c1cccc(OCCO)c1 :: -0.698

Qu. # input compound: `C=C[C@@H](COC(=O)OC(C)(C)C)N(Cc1ccc(OC)cc1)S(=O)(=O)c1ccc(Br)cc1` ; wanted: its z-score
Ans. -0.987

Qu. Same again, this time with N#Cc1ccc(NN2C(C(O)C(c3ccccc3)c3ccccc3)C=CC3C(=O)N(c4ccccc4)C(=O)C32)cc1 (stereo unspecified)
Ans. -0.734

Just for reference, PubChem BioAssay is where these values come from.
